- targetDesc: D(2) dopamine receptor (Homo sapiens)
- Sequence (P14416 whole entry): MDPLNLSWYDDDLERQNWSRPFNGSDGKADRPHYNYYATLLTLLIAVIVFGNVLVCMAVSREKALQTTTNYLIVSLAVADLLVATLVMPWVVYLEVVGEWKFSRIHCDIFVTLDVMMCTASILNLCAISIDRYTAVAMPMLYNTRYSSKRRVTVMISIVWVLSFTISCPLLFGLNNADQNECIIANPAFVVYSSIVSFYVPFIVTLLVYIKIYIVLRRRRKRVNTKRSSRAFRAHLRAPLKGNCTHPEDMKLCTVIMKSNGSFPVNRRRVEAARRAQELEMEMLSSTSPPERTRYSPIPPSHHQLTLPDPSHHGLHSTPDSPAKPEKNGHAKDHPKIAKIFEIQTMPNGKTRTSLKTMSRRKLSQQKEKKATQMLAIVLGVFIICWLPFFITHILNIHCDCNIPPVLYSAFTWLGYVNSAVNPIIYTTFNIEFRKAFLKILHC
- testProtocol: Antagonist activity at D2 receptor (unknown origin) expressed in Flp-In TREx 293 cells coexpressing chimeric Gqi5 protein assessed as calcium accumulation by Fluo-8AM dye based fluorescence analysis
- Assay type: functional, cell-based
measurementType: AC50 (nM)

Consider the reported AC50 for these molecules:
CN1C(=O)c2ccccc2[S+]([O-])c2ccc(C(=O)NCCc3cccs3)cc21 (racemic) ... 89
CCN1C(=O)c2ccccc2[S@+]([O-])c2ccc(C(=O)N[C@H](C)c3ccc(Br)cc3)cc21 ... 223
CCN1C(=O)c2ccccc2Sc2ccc(C(=O)NCc3ccc(OC)cc3)cc21 ... 705
CN1C(=O)c2ccccc2[S+]([O-])c2ccc(C(=O)NCc3ccc(F)cc3)cc21 (racemic) ... 353
CN1C(=O)c2ccccc2[S+]([O-])c2ccc(C(=O)NCc3ccccn3)cc21 (racemic) ... 11200
COc1ccc(NC(=O)c2ccc3c(c2)N(C)C(=O)c2ccccc2[S+]3[O-])cc1 (racemic) ... 353

[I] CN1C(=O)c2ccccc2[S+]([O-])c2ccc(C(=O)NCCN3CCCC3)cc21 (racemic)
[II] CN(C)CCCNC(=O)c1ccc2c(c1)N(C)C(=O)c1ccccc1[S+]2[O-] (racemic)
Enquiry: Endpoint returns the identifier whose AC50 is numerically larger, either I or II . In your reply, give the label of the chosen option.
Return: II

[P] COc1ccc(CNC(=O)c2ccc3c(c2)N(Cc2ccccc2)C(=O)c2ccccc2[S+]3[O-])cc1 (racemic)
[Q] CCN1C(=O)c2ccccc2[S+]([O-])c2ccc(C(=O)Nc3ccc(OC)cc3)cc21 (racemic)
Enquiry: Of P and Q , which carries the smaller reported AC50 figure? In your reply, give the label of the chosen option.
Return: Q
(Q: 141 nM, P: 8870 nM)
